Tested on: Yap1 mRNA
ASSAY_EXPLANATION: Antisense inhibition of human Yap1 in A-431 cells by cEt gapmers, single dose (Example 2, RTS4814)
Assay type: cell-based
CONDITION_SET: Table 18; A-431 cells, 5,000 cells per well, free uptake, 2,000 nM modified oligonucleotide, approx. 48 hours; RTS4814; normalized to RIBOGREEN; Yap1 mRNA as percent of untreated control
Strand notation (5' to 3'): a small letter for the sugar, then the base; units joined by * are phosphorothioate-linked, units joined directly phosphodiester-linked; [ ] holds rarer units or linkages, { } end groups; capitals alone tell only the bases. k = constrained ethyl (cEt); [5mC] = 5-methylcytosine; d = 2'-deoxy (DNA)
// label = Criterion met if YAP1 (% UTC) is not less than 80 % UTC, otherwise Criterion not met

Data request: Is YAP1 (% UTC) at least 80 % UTC? Consider 1075812 (k[5mC]*kA*kT*dT*dA*dA*dG*dA*dT*dT*dT*dT*dA*kA*k[5mC]*k[5mC]; antisense) [Compound 1075812]
Data returned: Criterion met

Data request: Is YAP1 (% UTC) at least 80 % UTC? Consider 1075620 (kG*kA*kT*dG*dA*dA*dG*dA*dA*dT*d[5mC]*dT*dA*kT*kA*kG; antisense) [Compound 1075620]
Data returned: Criterion met

Data request: Is YAP1 (% UTC) at least 80 % UTC? Consider 1075204 (antisense kG*kT*kT*dA*dA*dA*d[5mC]*dA*d[5mC]*dA*dT*d[5mC]*dT*k[5mC]*kA*kG) [Compound 1075204]
Data returned: Criterion not met

Data request: Is YAP1 (% UTC) at least 80 % UTC? Consider 958499 (kA*kT*kT*dA*dG*dA*dG*dT*dA*dT*dG*dT*dG*kG*k[5mC]*kA) [Compound 958499]
Data returned: Criterion not met

Data request: Is YAP1 (% UTC) at least 80 % UTC? Consider 1074948 (antisense kG*kA*kG*dT*dT*d[5mC]*d[5mC]*dA*dA*dA*dA*d[5mC]*d[5mC]*k[5mC]*kT*kT) [Compound 1074948]
Data returned: Criterion not met

Data request: Is YAP1 (% UTC) at least 80 % UTC? Consider 1076164 (kT*kG*kA*dT*dA*dT*dA*dA*dG*dT*dT*dA*d[5mC]*k[5mC]*kA*kA; antisense) [Compound 1076164]
Data returned: Criterion not met

Data request: Is YAP1 (% UTC) at least 80 % UTC? Consider 1076548 (antisense k[5mC]*kA*k[5mC]*d[5mC]*dA*dA*d[5mC]*d[5mC]*dT*dG*dT*dT*dA*kA*kG*kG) [Compound 1076548]
Data returned: Criterion met

Data request: Is YAP1 (% UTC) at least 80 % UTC? Consider 1075972 (kT*k[5mC]*kA*d[5mC]*dA*dA*dG*dG*dG*d[5mC]*dT*dA*dA*kT*kT*k[5mC]; antisense) [Compound 1075972]
Data returned: Criterion not met

Data request: Is YAP1 (% UTC) at least 80 % UTC? Consider 1076452 (kG*kG*kA*d[5mC]*dT*dA*dT*dA*dG*d[5mC]*d[5mC]*d[5mC]*dT*kT*kA*kA; antisense) [Compound 1076452]
Data returned: Criterion not met

Data request: Is YAP1 (% UTC) at least 80 % UTC? Consider 1076484 (antisense kG*kA*kA*dA*d[5mC]*dG*dG*dG*dA*dA*dA*dT*d[5mC]*kA*kT*kA) [Compound 1076484]
Data returned: Criterion not met

Data request: Is YAP1 (% UTC) at least 80 % UTC? Consider 1074916 (antisense kA*kA*kG*dT*dT*dA*d[5mC]*dA*dT*d[5mC]*d[5mC]*d[5mC]*dG*kA*kG*kT) [Compound 1074916]
Data returned: Criterion not met
